study.target: T1, monkey TIM-3 protein with hFc tag (cTIM-3-hFc protein) (monkey; human)
T1 construct: Made in HEK293 cells; also called monkey TIM-3 extracellular domain protein; not shown: human IgG Fc fragment (hFc) of the pCpC vector
T1 chain: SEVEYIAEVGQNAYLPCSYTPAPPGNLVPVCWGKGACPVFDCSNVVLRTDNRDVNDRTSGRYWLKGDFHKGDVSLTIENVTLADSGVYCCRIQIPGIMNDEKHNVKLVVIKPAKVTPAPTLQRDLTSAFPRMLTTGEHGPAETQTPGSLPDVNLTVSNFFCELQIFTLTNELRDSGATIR
assay.method.text: ELISA, coated cTIM-3-hFc; antibody 0.0067 nM
This listing pairs binders with measured OD450.
Give a plain numeric answer without units written out.

# example entries with known answers
34B6D8 (TIM-3 antibody purified from hybridoma, chimeric antibody of Example 2) (antibody, V domains shown, From hybridoma of Harbour H2L2 transgenic mice: human variable regions, rat constant regions) VH: EVQLVESGGGLVQPGGSLRLSCAASGFTFSTYWMTWVRQAPGKRLEWVANIKQGGGDKYYVDSVKGRFTISTDNAKNSLYLQMNSLRAEDTAVYYCARGSNWFDPWGQGTLVTVSS VL: EIVMTQSPATLSMSPGERATLSCRASQSVYDNLAWYQQKPGQAPRLLIYGASTRATGIPARFSGSGSGTEFTLTISSLQSEDFALYYCQQYTHWPITFGQGTRLEIK :: 0.78
39E5H1 (TIM-3 antibody purified from hybridoma, chimeric antibody of Example 2) (antibody, V domains shown, From hybridoma of Harbour H2L2 transgenic mice: human variable regions, rat constant regions) VH: EVQLVESGGGLVQPGGSLRLSCAASGFTFSSYWMSWVRQAPGKGLEWVANIKRGGSERYYVDSVKGRFTISGDNAKNSVYLQMNSLRAEDTAVYYCARGSNWFDPWGQGTLVTVSS VL: ETVMTQSPAILSVSPGERATLSCRASQSVYSNLAWYQQKLGQAPRLLIYDASTRATGIPARFSGSGSGTEFTLTISSLQSEDFAVYYCQQYNNWPITFGQGTRLEIK :: 0.85
18D2H2 (TIM-3 antibody purified from hybridoma, chimeric antibody of Example 2) (antibody, V domains shown, From hybridoma of Harbour H2L2 transgenic mice: human variable regions, rat constant regions) VH: EVQLVESGGDLVQPGGSLRLSCAASGFTFSTYWMTWVRQAPGRGLEWVANIKQDGSAKYYVDSVKGRFTLSRDDAKNSLYLQMNSLRAEDTAVYYCARGSNWFDYWGQGTLVTVSS VL: ETVMTQSPATLSVSPGERATLSCRANQNVYSNLAWYQQKPGQAPRLLIYDASTRATGFPARFSGSGSGTEFTLTISSLQSEDFAVYYCQQYNNWPLTFGGGTKVEIK :: 0.62

[in] For 57F4E5 (TIM-3 antibody purified from hybridoma, chimeric antibody of Example 2) (antibody, V domains shown, From hybridoma of Harbour H2L2 transgenic mice: human variable regions, rat constant regions) VH: EVQLVESGGGLVQPGGSLRLSCAASGFTFSSYWMSWVRQAPGKGLEWVANIKQDGSEKYYVDSVKGRFTISRDSAKNSLYLQMNSLRAEDTAMYFCARDSNFFDYWGQGTLVTVSS VL: ETVMTQSPATLSVSPGERATLSCRASQSVSSNLAWYQRKPGQAPRLLIYFSSTRATGIPARFSGSGSGTEFTLTISSLQSEDFAVYYCQQYNNWPLTFGGGTKVEIK , what is its reported OD450?
[out] 1.13

[in] GET /values?readout=OD450&item= 134H3G6 (TIM-3 antibody purified from hybridoma, chimeric antibody of Example 2) (antibody, V domains shown, From hybridoma of Harbour H2L2 transgenic mice: human variable regions, rat constant regions) VH: EVQLVESGGGLVQPGGSLRLSCAASGFTFSNSWMTWVRQAPGKGLEWVANIKQAGTEKYYVDSVKGRFTISRDNAKNSLYLQMNSLRAEDTAVYYCNSGSNYFDYWGQGTLVTVSS VL: EIVMTQSPATLSVSPGERATLSCRARQNFYSNLAWYQQKPGQAPRLLIYGASTRATGIPARFSGSGSGTEFTLTISSLQSEDFAVYYCQQYNNWPLTFGGGTKVEIK
[out] 0.56

[in] Would you kindly share the measured OD450 for 7A4F10 (TIM-3 antibody purified from hybridoma, chimeric antibody of Example 2) (antibody, V domains shown, From hybridoma of Harbour H2L2 transgenic mice: human variable regions, rat constant regions) VH: EVQLLESGGGLVQPGGSLRLSCAASGFTFRTHLISWVRQAPGKGLEWVAAITGSGGSTYYADSVKGRFIISRDNSKNTLFLQMNSLRAEDTAVYYCAKDGGSGSYDDFWGQGTLVTVSS VL: ETVLTQSPVTLSLSPGERATLSCRASQSVGSYLAWYQQKPGQAPRLLIYDASNRATGIPARFSGSGSGTDFTLTISSLEPEDFAVYYCQQRSNWPPTFGQGTKVEIK ?
[out] 0.57
